Test system: SK-HEP1
Assay: Antiproliferative activity against human SK-HEP1 cells treated for 72 hrs by MTT assay
Format: functional, cell-based
Conditions: SK-HEP1, 72 h
pIC50: −log10 of the molar value.
Property: pIC50; scope: individual compounds

COMPOUND	pIC50
COc1ccc2[nH]c3c(c2c1)CCN1C(=O)c2cc(F)ccc2N(c2cc(F)ccc2Cl)C31 (stereo unspecified)	4.78
CN1c2ccccc2C(=O)N2CCc3c([nH]c4ccccc34)C21 (stereo unspecified)	5.53
COc1ccc2[nH]c3c(c2c1)CCN1C(=O)c2cc(F)cc(F)c2N(c2cccc(F)c2)C31 (stereo unspecified)	6.57
COc1cc(F)cc(N2c3ccc(F)cc3C(=O)N3CCc4c([nH]c5ccc(OC)cc45)C32)c1 (stereo unspecified)	5.50
COc1ccc2[nH]c3c(c2c1)CCN1C(=O)c2cc(F)ccc2N(c2ccc(OC)c(F)c2)C31 (stereo unspecified)	5.34
COc1ccc2[nH]c3c(c2c1)CCN1C(=O)c2cc(F)ccc2N(c2cc(F)ccc2C)C31 (stereo unspecified)	5.05

Sourced from ChEMBL document CHEMBL5154935
